Test system: ITK
CONDITION_SET: Compound Concentration (nM):1000;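 note: KINOMEscan scanMAX binding as percent activity remaining versus control; lower means stronger binding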
OBSERVED_PROPERTY: Percent Control (%)

1. Cl.O=C(Nc1ccc(Oc2ccc3[nH]c(NC(=O)c4ccco4)nc3c2)cc1)Nc1cc(C(F)(F)F)ccc1F [GW683134A] | 97
2. Cl.c1ccc(Cc2nc3ccc(Nc4ncnc5ccccc45)cc3[nH]2)cc1 [GR269666A] | 100
3. NS(=O)(=O)c1ccc(N/N=C2\C(=O)Nc3ccc(Cl)cc32)cc1 [GW280670X] | 100
4. CN1CCN(C(=O)c2ccc(NC(=O)Nc3ccc(N(C)c4ccnc(Nc5ccc(CS(C)(=O)=O)cc5)n4)cc3)cc2)CC1.Cl [GW830263A] | 98
5. C/C(Nc1ccc(S(N)(=O)=O)cc1)=C1/C(=O)Nc2ccccc21 [GW335962X] | 100
6. CCS(=O)(=O)c1ccc(OC)c(Nc2ncc(-c3cccc(OC)c3)o2)c1 [GW580509X] | 100
7. COc1cc2ncnc(Nc3ccc4c(cnn4Cc4ccccc4)c3)c2cc1OC.Cl [GW282449A] | 100
8. COc1ccc2[nH]c3c4[nH]c5ccc(OC)cc5c4c4c(c3c2c1)C(=O)NC4=O [GW296115X] | 89

* * *

System: YSK4
Construct: gene MAP3K19
CONDITION_SET: Compound Concentration (nM):1000
Checkbox rule: Percent Control lower than 20% = TRUE; Percent Control not lower than 20% = FALSE.

1) CN1CCN(C(=O)c2ccc(NC(=O)Nc3ccc(N(C)c4ccnc(Nc5ccc(CS(C)(=O)=O)cc5)n4)cc3)cc2)CC1.Cl [GW830263A] | TRUE
2) NS(=O)(=O)c1ccc(N/N=C2\C(=O)Nc3ccc(C(=O)NCc4ccncc4)cc32)cc1 [GW300657X] | TRUE
3) COc1ccc2c(-c3ccnc(Nc4cccc(OC(F)(F)F)c4)n3)cnn2n1 [GW810372X] | FALSE
4) C[C@@H](Oc1cc(-n2cnc3ccc(OC4CCN(C)CC4)cc32)sc1C(N)=O)c1ccccc1Cl [GSK579289A] | FALSE
5) CCc1ccc(Oc2nccc(-c3c(-c4ccc(F)cc4)ncn3C3CCNCC3)n2)cc1 | FALSE
6) NS(=O)(=O)c1ccc(Nc2ncc(-c3ccccc3)o2)cc1 [GW572399X] | FALSE
7) CC1=C(C(=O)Nc2ccc3[nH]ncc3c2)C(c2ccc(Cl)c(Cl)c2)CC(=O)N1 (centres unmarked) [GSK299115A] | FALSE

* * *

Tested on: ROS1
CONDITION_SET: Compound Concentration (nM):1000
OBSERVED_PROPERTY: Percent Control (%)

1. COc1ccc2cc(-c3c(-c4ccncc4)nc(-c4ccc(S(C)(=O)=O)cc4C)n3C)ccc2c1 | 69
2. Cl.c1ccc(Cc2nc3ccc(Nc4ncnc5ccccc45)cc3[nH]2)cc1 [GR269666A] | 76
3. CN(C)CCNC(=O)Nc1ccc(N(C)c2ccnc(Nc3ccc(CS(C)(=O)=O)cc3)n2)cc1.Cl [GW830900A] | 61
4. CN1CCN(C(=O)c2ccc(NC(=O)Nc3ccc(N(C)c4ccnc(Nc5ccc(CS(C)(=O)=O)cc5)n4)cc3)cc2)CC1.Cl [GW830263A] | 57

* * *

Test system: PRKG1
CONDITION_SET: Compound Concentration (nM):1000
OBSERVED_PROPERTY: Percent Control (%)

1. Cc1cc(O)cc(C)c1/C=C/c1cncc(C(N)=O)c1 [GW435821X] | 100
2. COc1ccc2cc(-c3c(-c4ccncc4)nc(-c4ccc(S(C)(=O)=O)cc4C)n3C)ccc2c1 | 100
3. COc1cc(C)c(N(C)C(=O)CN(C)C)cc1Nc1nc(Nc2cccc(F)c2C(N)=O)c2cc[nH]c2n1 | 92
4. Nc1ncnc2occ(-c3ccc(NC(=O)Nc4cc(C(F)(F)F)ccc4F)cc3)c12 [GW770249X] | 71
